Give TGI for every item shown.
System: PC-3 prostate
Test: NCI tumour cell line growth inhibition, 48 h

What the record says about CC1CCC(O)(C(C)(C(=O)O)c2ccccc2)CC1 (stereo not drawn) : TGI is > 100 µM

What the record says about COC(=O)[C@]12CC[C@@H](C)[C@H](C)[C@@H]1C1=CC[C@@H]3[C@@]4(C)C(C=O)=C[C@@](C)(COC(=O)c5ccco5)[C@@H]4C(=O)C[C@@]3(C)[C@]1(C)CC2 : TGI is > 100 µM

What the record says about Cc1cc(C2=NNC(=O)Cc3cc4c(cc32)OCCO4)cc(C)c1N : TGI is > 100 µM

Measured values drawn from PubChem BioAssay (NCI) for this set.
